# assay-system: Dickkopf-related protein 1 (Homo sapiens)
# assay-protocol: DKK1 binders on small-molecule microarrays, primary screen, biochemical, small-molecule microarray, 635 nm fluorescence scan (AID 1106);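 also: score merges emission near 667 nm with signal to noise over three replicate slides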
# measurement-parameters: DKK1 binding, higher = more signal
This section presents compounds with their documented composite z-score values.
Please give the numeric answer without any surrounding text.

Below: 2 compounds and their reported composite z-score.
| structure-smiles | measurement-label | result-value |
| --- | --- | --- |
| CN(C)CCCNC(=O)[C@@]1(c2ccc([N+](=O)[O-])cc2)CC(=O)N(C2CCCCC2)[C@@H]1c1ccc(CO)cc1 | composite z-score | -0.236 |
| CCOC(=O)C[C@H]1[C@H](OC(=O)c2cc3ccccc3oc2=O)[C@@H](NC(=O)C2CCCCC2)c2cc(OCCCO)ccc2N1C(=O)c1ccccc1 | composite z-score | 0.5 |

Identify the measured composite z-score of Cc1ccc(S[C@]2(C(=O)NC(C)C)CC(=O)N(Cc3ccccc3Cl)[C@@H]2c2ccc(CO)cc2I)cc1 for Dickkopf-related protein 1 (Homo sapiens). -1.39

----------
# assay-protocol: inhibitors of hydroxyurea-induced Chk1 phosphorylation, primary screen, imaging, HeLa, phospho-Chk1 nuclear intensity (AID 1187); also: test concentration not given here
# measurement-parameters: hydroxyurea-induced phospho-Chk1 immunofluorescence imaging, higher = more signal
measurement-label: z-score
// return a plain number; no unit text

| molecule | z-score |
| --- | --- |
| C=CCN(Cc1ccccc1)C(=O)C(c1cccs1)N(CCOCCO)C(=O)/C=C\C(=O)O (stereo unspecified) | -0.806 |

Which value of z-score has been reported for COCCOC(=O)N1C(=O)[C@@]2(c3cc(C#CC4=CCCCC4)ccc31)[C@H](C(=O)N1CCc3cc(OC)c(OC)cc3C1)[C@H]1C(=O)O[C@H](c3ccccc3)[C@H](c3ccccc3)N1[C@@H]2c1ccc(OCCO)cc1 in the records? 0.631

Fill blank: measured z-score of the molecule C=CCOC(=O)[C@H]1[C@@H]2C(=O)O[C@@H](c3ccccc3)[C@@H](c3ccccc3)N2[C@@H](c2ccc(OCCOC(=O)[C@@H]3C[C@@H]4C(=O)N[C@@H](CCCC[N+](C)(C)C)C(=O)N4[C@@H]3c3ccc(O)cc3)cc2)[C@]12C(=O)Nc1ccccc12 is ____. -0.282

Which z-score value belongs to C=C(C)C1C(=C)CN([C@H](CO)c2ccccc2)C1=O (stereo partly specified) ? -0.339

Looking for the measured z-score of CC1CC/C=C\[C@H]2OC34C=CCN(Cn5nnc6ccccc65)C(=O)[C@H]3N(C(CO)C(C)C)C(=O)[C@@H]4C2C(=O)O1 (stereo partly specified) , can you help? 0.71

Value lookup for z-score; key = O=C1NC(=O)C2C1C=CC(C(O)C(c1ccccc1)c1ccccc1)N2Nc1ccc(Cl)cc1Cl (stereo unspecified) 0.889

----------
# assay-protocol: binders of probe aFST on microarray, primary screen, stem cell growth factor project, biochemical, small-molecule microarray, fluorescence 635/667 (AID 1086);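 also: score merges 667 nm fluorescence with signal-to-noise of each printed compound spot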
# measurement-parameters: higher = more signal
measurement-label: composite z-score
Keep it simple and answer with nothing but the number.

Answered examples (5):
| molecule | composite z-score |
| --- | --- |
| COc1cc2c(cc1O)C=[N+](Cc1cccc(OC(F)(F)F)c1)CC2 | -0.0596 |
| CN1C(=O)C2C=CC(C(O)c3ccc(-c4ccccc4)s3)N(N(c3ccccc3)c3ccccc3)C2C1=O (centres undefined) | 0.422 |
| Cc1ccc(S[C@]2(C(=O)NCCN3CCOCC3)CC(=O)N(Cc3ccccc3)[C@@H]2c2ccc(CO)cc2I)cc1 | -0.39 |
| C#CCN(CC=C(C)C)[C@H](CO)c1ccccc1 | -0.0173 |
| CCCCCN1CC=CC23O[C@@H]4/C=C\CCCOC(=O)C4[C@H]2C(=O)N(C(CO)C(C)C)[C@@H]3C1=O (some centres undefined) | -0.384 |

Given the entry CC1CC/C=C\[C@H]2OC34C=CCN(Cn5nnc6ccccc65)C(=O)[C@H]3N(C(CO)C(C)C)C(=O)[C@@H]4C2C(=O)O1 (some centres undefined) , report its measured composite z-score. -0.314

// lookup composite z-score for COC(=O)[C@@]1(Cc2ccccc2)[C@H]2c3cc(C(=O)N4CCCC4)n(Cc4cccc5ccccc45)c3C[C@H]2CN1C(=O)c1ccccc1 2.03

Any idea what its composite z-score is? The molecule is COc1ccc(CCNC(=O)[C@@]2(C)c3ccccc3C(=O)N(Cc3cc(F)cc(C(F)(F)F)c3)[C@H]2c2ccc(CO)cc2)cc1 -0.247

Data request, read-out composite z-score, for C=C(COC)/C(=C/C[C@H](OC(=O)c1ccncc1)c1ccc(OCCO)cc1)c1cnc2ccccc2c1 1.14

Need composite z-score, item COc1cc2c(cc1OC)CN(C(=O)[C@H]1[C@@H]3C(=O)O[C@@H](c4ccccc4)[C@@H](c4ccccc4)N3[C@@H](c3ccc(O)cc3)[C@]13C(=O)Nc1ccc(C#CC4=CCCCC4)cc13)CC2 0.827

Bench note: what composite z-score did COc1ccc(C(=O)Nc2cccc(CN3C(=O)[C@]4(O[C@H](CCO)[C@@H]([Si](C)(C)c5ccc(OC)cc5)[C@@H]4C)c4ccccc43)c2)cc1 show? 0.439

Give its composite z-score value. Item: COC(=O)[C@@]1(Cc2ccc(F)cc2)[C@H]2c3cc(C(=O)N(C)C)n(Cc4nc5ccccc5[nH]4)c3C[C@H]2CN1C(=O)c1ccccc1 1.36

Item C=CCOC(=O)[C@@H]1[C@H]2C(=O)O[C@H](c3ccccc3)[C@H](c3ccccc3)N2[C@H](c2ccc(OCCOC(=O)[C@@H]3C[C@@H]4C(=O)N[C@@H](CCCCN(C)C)C(=O)N4[C@@H]3c3ccc(O)cc3)cc2)[C@@]12C(=O)Nc1ccc(I)cc12 has what recorded composite z-score? 0.171

Recorded composite z-score of OC([C@@H]1CC(c2ccccc2)=NO1)[C@H]1CC(c2ccccc2)=NO1 (some centres undefined) , please. 0.227
